Attribution: PubChem BioAssay

# ASSAY_DETAILS: human hepatoma cell viability loss – ATP luminescence, cytotoxicity control for P. falciparum antimalarial project, primary screen (AID 2303);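 note: 0% = DMSO wells and 100% = digitonin-killed cells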
# RUN_CONDITIONS: HepG2 viability, 24-48 h, at 10 µM, stronger effect = higher value
Active and inactive are the calls of the source.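 Rule for the calls: active = inhibition above 50%; inactive = the rest.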

>  <COMPOUND>
Cn1nccc1C(=O)NCCNCc1cccc(-c2ccc(-c3nc4ccc(C(F)(F)F)cc4[nH]3)s2)c1

>  <inhibition>
36% (inactive)

$$$$
>  <COMPOUND>
CC1(C)N=C(N)N=C(N)N1OCCSc1ccc(Cl)c(Cl)c1

>  <inhibition>
65% (active)

$$$$
>  <COMPOUND>
CC(CN1CCN(C)CC1)C(=O)Nc1cccc(-c2cccc(-c3nc4ccccc4[nH]3)c2)c1 (stereo not given)

>  <inhibition>
23% (inactive)

$$$$
>  <COMPOUND>
CN1CCN(c2cc(-c3ccncc3)nc(-c3cccnc3)n2)CC1

>  <inhibition>
13% (inactive)

$$$$
>  <COMPOUND>
CCCCCCN1CCC(CNCc2cccc(Cl)c2)CC1

>  <inhibition>
8% (inactive)

$$$$
>  <COMPOUND>
CCCCCCN(CCCCCC)CC(O)c1cc(-c2ccc(Cl)cc2)nc2c(C)cc(C)cc12 (stereo not given)

>  <inhibition>
27% (inactive)

$$$$
>  <COMPOUND>
CN(C)c1nc2cc(-n3cnc4cc(-c5ccc(Cl)cc5)sc4c3=O)ccc2n1CCCN1CCCC1

>  <inhibition>
99% (active)

$$$$
>  <COMPOUND>
CCc1nn2c(Nc3ccncc3)cc(C)nc2c1-c1ccccc1

>  <inhibition>
4% (inactive)

$$$$
>  <COMPOUND>
COc1cc2nc(NCCc3ccccc3)nc(NCc3ccc(C#N)cc3)c2cc1OC

>  <inhibition>
52% (active)

$$$$
>  <COMPOUND>
O=S(=O)(NC1CCN(c2ccnc3cc(Cl)ccc23)C1)c1ccc(C(F)(F)F)cc1 (stereo not given)

>  <inhibition>
20% (inactive)

$$$$

====

# ASSAY_DETAILS: antimalarial activity against Dd2 strain (AID 2302);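 note: 0% = DMSO untreated growth and 100% = chloroquine plus artemisinin killed control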
# RUN_CONDITIONS: P. falciparum Dd2 in RBCs, LDH growth readout, 72 h; at 2 µM
The source made the active and inactive calls.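 How the source made its calls: active means growth inhibition above 50% at the single 2 µM test dose, taken to imply half-maximal potency below 2 µM; inactive means the rest.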
Outcomes: active, inactive

>  <MOLECULE>
Cc1ccc2nc3c(cc(C(=O)NCc4ccccc4)c(=N)n3CCCn3ccnc3)c(=O)n2c1

>  <CATEGORY_LABEL>
inactive

$$$$
>  <MOLECULE>
Cc1cc(N[C@@H](Cc2ccccc2)C(=O)NCCCOC(C)C)nc(NCC2CCCCC2)n1

>  <CATEGORY_LABEL>
inactive

$$$$
>  <MOLECULE>
Fc1cccc(COc2ccc(Nc3ncnc4sc(C#CCNC5CCC5)cc34)cc2Cl)c1

>  <CATEGORY_LABEL>
active

$$$$
>  <MOLECULE>
Cc1cc(C(=O)Nc2ccc3c(c2)CCN3C2CCN(Cc3cccc(F)c3F)C2)no1 (stereo not given)

>  <CATEGORY_LABEL>
active

$$$$
>  <MOLECULE>
COc1ccc(Cc2cccc(C(C(=O)NCc3cc(Cl)cc(Cl)c3)N3CCN(C)CC3)c2)cc1 (stereo not given)

>  <CATEGORY_LABEL>
inactive

$$$$
>  <MOLECULE>
C#CC[C@@H](NC(N)=O)C(=O)O

>  <CATEGORY_LABEL>
inactive

$$$$
>  <MOLECULE>
CCN1CCN(CCCNc2c3ccc(Cl)cc3nc3ccc(O)cc23)CC1

>  <CATEGORY_LABEL>
inactive

$$$$
>  <MOLECULE>
CCOc1ccccc1CON1C(N)=NC(N)=NC1(C)C

>  <CATEGORY_LABEL>
inactive

$$$$
>  <MOLECULE>
CS(=O)(=O)c1ccc(CNCc2ccc(-c3cccc(-c4nc5ccc(F)cc5[nH]4)c3)cc2)cc1

>  <CATEGORY_LABEL>
active

$$$$
>  <MOLECULE>
NC1=NC2(CCCCC2)N(Cc2ccc(Cl)c(Cl)c2)C(N)=N1

>  <CATEGORY_LABEL>
active

$$$$
